Assay: Solubility of the purified compounds in solvents
Format: physicochemical
Conditions: water
QUANTITY KIND: Solubility in water

1) CC(=O)c1c(C)c(C(=O)c2coc3cc(O)c(O)c(C(=O)O)c3c2=O)cc2c(=O)c3c(O)cc(O)c(O)c3oc12 [SPF-3059-22]
Insoluble
2) CC(=O)c1c2c(c3ccc4c(=O)c5c(C(=O)O)c(O)c(O)cc5oc4c3c1C)C(=O)C1(CC2)COc2cc(O)c(O)c(C(=O)O)c2C1=O (stereo not drawn) [SPF-3059-38]
Insoluble
3) CC(=O)c1cc(-c2c(C(C)=O)cc3c(=O)c4c(C(=O)O)c(O)c(O)cc4oc3c2C(C)=O)cc(C(=O)c2c(O)cc(O)c(O)c2C(=O)O)c1O [SPF-3059-23]
Insoluble
4) CC1=Cc2oc3cc(O)c(O)c(C(=O)O)c3c(=O)c2C(c2c(C)oc3c(c2=O)COc2cc(O)c(O)c(C(=O)O)c2-3)O1 (stereo not drawn) [SPF-3059-17]
Insoluble
5) CC(=O)C1=C2c3cc(O)c(O)cc3OCC2(C(=O)/C=C(/C)O)Cc2c1oc1cc(O)c(O)c(C(=O)O)c1c2=O (stereo not drawn) [SPF-3059-40]
Insoluble
6) Cc1cc(=O)c2c(o1)-c1c(c3c(c(O)c1C(=O)O)OC1(C)Cc4oc5cc(O)c(O)c(C(=O)O)c5c(=O)c4C3O1)OC2 (stereo not drawn) [SPF-3059-8]
Insoluble
